tested on: Enterococcus sp.; test: in vitro antibacterial evaluation, MIC by broth dilution; type: cell-based; conditions: broth dilution, 18 hours at 35° C.; strain GC 3059
propertyName: MIC Enterococcus faecalis (GC 3059) (µg/mL)
Give bare numbers, in µg/mL.

### Prompt I am curious: what MIC Enterococcus faecalis (GC 3059) value has been reported for CC(c1ccccc1)C1NC(=O)CNC(=O)C(CO)NC(=O)C(C(O)C2CNC(=N)N2C2OC(CO)C(O)C(O)C2O)NC(=O)C(C(O)C2CNC(=N)N2)NC(=O)C(Cc2ccc(OC3OC(CO)C(OC4OC5COC(CC6CCN(C(=O)OCc7ccccc7)CC6)OC5C(O)C4O)C(O)C3O)cc2)NC1=O (centres unmarked) [Example 113] ?
### Response 2
